target: MDM2 (Homo sapiens); assay: MDM2 binding screen: displacement of fluorescent p53 peptide probe FP53 (fluorescence polarization); settings: Acid 25; initial screen; crude macrocycle reactions
Sequence (Q00987 whole entry): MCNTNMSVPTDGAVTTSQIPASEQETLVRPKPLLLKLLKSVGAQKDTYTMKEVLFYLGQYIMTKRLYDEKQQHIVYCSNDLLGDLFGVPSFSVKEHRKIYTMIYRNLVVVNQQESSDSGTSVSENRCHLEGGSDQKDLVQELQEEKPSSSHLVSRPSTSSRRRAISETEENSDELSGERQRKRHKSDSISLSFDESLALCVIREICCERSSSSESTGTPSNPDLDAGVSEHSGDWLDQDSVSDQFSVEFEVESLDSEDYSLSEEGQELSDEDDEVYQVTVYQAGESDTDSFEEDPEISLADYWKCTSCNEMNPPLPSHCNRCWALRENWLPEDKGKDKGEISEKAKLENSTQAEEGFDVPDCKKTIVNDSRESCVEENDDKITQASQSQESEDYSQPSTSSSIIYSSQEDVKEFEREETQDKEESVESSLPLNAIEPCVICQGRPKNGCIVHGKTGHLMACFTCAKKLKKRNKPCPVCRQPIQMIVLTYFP
Numbered stars: 1 amine (or outer) side, 2 acyl side, 3 side chain; on linkers, the order of the positions; unused ones are H or OH. Bridge positions count the residues as written; N and C are the ends. Square brackets hold non-standard residues; d marks the D form. Peptide text beside a SMILES is read from it. * marks the point of attachment. Benzoyl(4-Cl) = O=C(c1ccc(Cl)cc1)*; Cysteamide = C(CS[*:3])N[*:1]; Dap = NC[C@H](N)C(=O)O; Mpa = O=C(O)CCS
Exam item: assign Condition met to entries whose fraction fluorescent probe displaced, Screen is below 0.09 and Condition not met to entries at or above 0.09. Note that a value of exactly 0.09 receives Condition not met.

- molecule: "O=C1CCSSCCNC(=O)[C@@H]2CCCN2C(=O)[C@H](CNC(=O)c2ccc(Cl)cc2)NC(=O)[C@H](Cc2c[nH]c3ccccc23)N1 [X W D3 B1 Acid 25] ([Mpa]W[Dap](Benzoyl(4-Cl))P-Cysteamide; disulfide 1-C)"
  category-label: "Condition not met"
- molecule: "O=C1CCSSCCNC(=O)[C@H](Cc2c[nH]c3ccccc23)NC(=O)c2cccc(c2)CNC(=O)[C@H](CNC(=O)c2ccc(Cl)cc2)N1 [X D3 B5 W Acid 25]"
  category-label: "Condition not met"
- molecule: "O=C1CCSSCCNC(=O)C2(CCN(C(=O)c3ccc(Cl)cc3)CC2)NC(=O)C(Cc2ccccc2)NC(=O)c2cccc(c2)CN1 (stereo not drawn) [X B5 F D6 Acid 25]"
  category-label: "Condition met"
- molecule: "O=C1CCSSCCNC(=O)[C@H](Cc2c[nH]c3ccccc23)NC(=O)C2(CCN(C(=O)c3ccc(Cl)cc3)CC2)NC(=O)c2cccc(c2)CN1 [X B5 D6 W Acid 25]"
  category-label: "Condition not met"
- molecule: "O=C1CCNC(=O)C(Cc2ccccc2)NC(=O)C2CN(C(=O)c3ccc(Cl)cc3)CCN2C(=O)CCSSCCN1 (stereo not drawn) [X D7 F B2 Acid 25]"
  category-label: "Condition met"

----------
Biological target: MDM2 (Homo sapiens)
Test: MDM2 binding screen: displacement of fluorescent p53 peptide probe FP53 (fluorescence polarization)
Conditions: Acid 14; replicate; crude macrocycle reactions
Protocol: We screened Library 2 in 384-microwell plates by dispensing the target protein MDM2 and reporter peptide into the wells containing the macrocycle reactions. The products were screened for displacement of a p53-based fluorescent peptide from human MDM2. […] For each macrocycle, the MDM2 binding was measured once. One fluorescence anisotropy reading was taken with a Tecan Infinite F200 Pro fluorescence plate reader (excitation at 485 nm, emission at 535 nm) at 25 °C. […]
Numbered stars: 1 amine (or outer) side, 2 acyl side, 3 side chain; on linkers, the order of the positions; unused ones are H or OH. Bridge positions count the residues as written; N and C are the ends. Square brackets hold non-standard residues; d marks the D form. Peptide text beside a SMILES is read from it. * marks the point of attachment. 2Thenoyl(5-Cl) = O=C(c1ccc(Cl)s1)*; Cysteamide = C(CS[*:3])N[*:1]; Api = NC1(C(=O)O)CCNCC1; Dap = NC[CH](N)C(=O)O; Mpa = O=C(O)CCS
Is fraction fluorescent probe displaced, Replicate at least 0.1? Then met. If not, not met.

- compound: "O=C1CCSSCCNC(=O)C2(CCN(C(=O)c3ccc(Cl)s3)CC2)NC(=O)CCNC(=O)C(Cc2ccccc2)N1 (centres unmarked)"
  category-label: "not met"
- compound: "O=C1CCSSCCNC(=O)[C@H](Cc2c[nH]c3ccccc23)NC(=O)[C@@H]2CCCN2C(=O)C2(CCN(C(=O)c3ccc(Cl)s3)CC2)N1 [X D6 B1 W Acid 14] ([Mpa][Api](2Thenoyl(5-Cl))PW-Cysteamide; disulfide 1-C)"
  category-label: "not met"
- compound: "O=C1NC(Cc2c[nH]c3ccccc23)C(=O)N2CCN(C(=O)c3ccc(Cl)s3)CC2C(=O)NCCSSCCC(=O)N2CCCC12 (centres unmarked)"
  category-label: "met"
- compound: "O=C1CCSSCCNC(=O)[C@@H]2CCCN2C(=O)[C@H](Cc2c[nH]c3ccccc23)NC(=O)[C@H](CNC(=O)c2ccc(Cl)s2)N1 [X D3 W B1 Acid 14] ([Mpa][Dap](2Thenoyl(5-Cl))WP-Cysteamide; disulfide 1-C)"
  category-label: "met"
- compound: "O=C1CCNC(=O)C2CC(NC(=O)c3ccc(Cl)s3)CN2C(=O)CCSSCCNC(=O)C(Cc2ccccc2)N1 (centres unmarked)"
  category-label: "not met"
- compound: "O=C(NCC1NC(=O)C(Cc2c[nH]c3ccccc23)NC(=O)C2CCCN2C(=O)CCSSCCNC1=O)c1ccc(Cl)s1 (centres unmarked) [X B1 W D3 Acid 14] ([Mpa]PW[Dap](2Thenoyl(5-Cl))-Cysteamide; disulfide 1-C; configuration not given here)"
  category-label: "met"
- compound: "O=C1CCSSCCNC(=O)c2cccc(c2)CNC(=O)[C@H](Cc2ccccc2)NC(=O)C2(CCN(C(=O)c3ccc(Cl)s3)CC2)N1"
  category-label: "met"
- compound: "O=C(NCC1NC(=O)C2CCCN(C2)C(=O)CCSSCCNC(=O)C(Cc2ccccc2)NC1=O)c1ccc(Cl)s1 (centres unmarked)"
  category-label: "met"
- compound: "O=C1CCSSCCNC(=O)c2cccc(c2)CNC(=O)C2(CCN(C(=O)c3ccc(Cl)s3)CC2)NC(=O)[C@H](Cc2c[nH]c3ccccc23)N1"
  category-label: "met"
